The measurements presented in this section are drawn from patent US20220194999A1.

- TARGET_OF_ASSAY: T1, HLA-A*02:01 class I complex (conditional p*HLA*02:01, biotinylated heavy chain with beta2-microglobulin) (human, biotinylated heavy chain)
- T1 construct: UV-labile peptide p* is cleaved and exchanged for the test peptide; also called HLA 2.1
- EXPERIMENT_SUMMARY: UV peptide exchange, HLA class I ELISA, % of Pos peptide;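 note: Streptavidin-captured HLA complexes after exchange detected via HRP anti-human B2M antibody, absorbance read, colour scales with intact complex, normalized to exchange control peptide as 100%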
Cut-off 40% on Exch II (%), inclusive. At or above means Satisfied; below means Not satisfied.

| BINDER | QUALITATIVE_LABEL |
| --- | --- |
| GMKDLLNPV (also called M082) [PIK3CA_E453K6 mimic peptide GMKDLLNPV] | Satisfied |
| SMTCTYFPL (also called M211) [TP53_S127F11 mimic peptide SMTCTYFPL] | Satisfied |
| NMDEYVHNT (also called M110) [SF3B1.R625H mutant peptide NMDEYVHNT] | Not satisfied |
| GLAPPQLLV (also called M141) [TP53_H193L5 mimic peptide GLAPPQLLV] | Satisfied |
| ILNREIDFL (also called M093) [PIK3CA_G118D9 mimic peptide ILNREIDFL] | Satisfied |
| YMDSGIHFV (also called M033) [CTNNB1_S37F6 mimic peptide YMDSGIHFV] | Satisfied |
| LMVVGAAGV (also called M052) [KRAS_G12A3 mimic peptide LMVVGAAGV] | Satisfied |
| CYLYYYSYLI (also called M105) [PTEN.R173C10 mimic peptide CYLYYYSYLI] | Not satisfied |
